Source: ChEMBL document CHEMBL4689842

- System: HEK-293T
- Assay text: Multiplex assay against HEK293T
- Assay type: toxicity, cell-based
- Condition summary: human, 24 h, 10 µM, compound concentration 10 uM, replicate 1
Measured quantity: Total Cell Count
One number for each entry.

Sample answers from the record:
compound=CCOc1cc2ncc(C#N)c(Nc3ccc(OCc4cccc(F)c4)c(Cl)c3)c2cc1NC(=O)/C=C/CN(C)C reported_value=592
compound=Cc1cn(-c2cc(NC(=O)c3ccc4c(c3)CN(c3cncnc3)C[C@@H]4C)cc(C(F)(F)F)c2)cn1 reported_value=740

Please supply Total Cell Count for each of the following items, keeping them in order.
1. Cc1nc(Cc2cccc(C(F)(F)F)c2)sc1-c1ccc(C(N)=O)nc1 [TP-024n]
2. Nc1nc2c(c(N3CCNCC3)n1)CCC1=C2[C@@H]2CCCC[C@@H]2O1

Reply |
1: 338; 2: 241

====

- Test system: Fibroblast
- Assay text: Multiplex assay against human fibroblast
- Type: toxicity, cell-based
- Condition summary: 12 h, 1 µM, compound concentration 1 uM, replicate 2
Classification by Population Apoptotic (%) | ranges: bin 0 (below 30%), bin 1 (30% to below 70%), bin 2 (70% or more)

Here are 5 compounds together with their reported answers.
compound="CC(C)Oc1ccc(C(=O)N[C@H](CNC(=O)CN(C)C)Cc2ccc(-c3cn4cccc([C@H](C)O)c4n3)cc2)cc1Cl [GSK-923295A]" cat="bin 2"
compound=CNC(=O)c1cc(Oc2ccc(NC(=O)Nc3cc(C(C)(C)C)nn3-c3ccc4ncccc4c3)c(F)c2)ccn1 cat="bin 1"
compound=CCc1cc2c(cc1CC)CC(NC[C@H](O)c1ccc(O)c3[nH]c(=O)ccc13)C2 cat="bin 1"
compound=O=C(O)c1ccc2cc(-c3ccc(O)c(C45CC6CC(CC(C6)C4)C5)c3)ccc2c1 cat="bin 2"
compound=Cc1cc2c(cc1N1C(=O)c3cccc4c(CCCO)ccc(c34)C1=O)n(C)c(=O)n2C cat="bin 0"

Ask | Pick a category. Item: CC(C)(C)c1cnc(CSc2cnc(NC(=O)C3CCNCC3)s2)o1
Reply | bin 1

Ask | Pick a category. Item: c1ccc2oc(-c3csc(C4CCN(Cc5nc6ncccc6[nH]5)CC4)n3)cc2c1
Reply | bin 0

Ask | Pick a category. Item: Nc1nc2c(c(N3CCNCC3)n1)CCC1=C2[C@@H]2CCCC[C@@H]2O1
Reply | bin 0

Ask | Pick a category. Item: Cl.Cl.NC1(c2ccc(-c3nc4ccn5c(=O)[nH]nc5c4cc3-c3ccccc3)cc2)CCC1
Reply | bin 2

Ask | Pick a category. Item: CC(=O)c1cc(-c2cc(C(=O)NC3CC3)ccc2C)c2ncccn12
Reply | bin 1

Ask | Pick a category. Item: Cl.Cl.Nc1ncnc2c1c(-c1cccc(OCc3ccccc3)c1)cn2[C@H]1C[C@@H](CN2CCC2)C1
Reply | bin 0

Ask | Pick a category. Item: CN(C)C/C=C/C(=O)Nc1cc2c(Nc3ccc(F)c(Cl)c3)ncnc2cc1O[C@H]1CCOC1.O=C(O)/C=C\C(=O)O.O=C(O)/C=C\C(=O)O [AFATINIB DIMALEATE]
Reply | bin 1

Ask | Pick a category. Item: CCOc1cc2ncc(C#N)c(Nc3ccc(OCc4cccc(F)c4)c(Cl)c3)c2cc1NC(=O)/C=C/CN(C)C
Reply | bin 1
